Test system: MT-4 cells
Experiment: Cytotoxicity test in MT-4 cells (MTT method)
Assay type: cell-based
Settings: human
Quick rule for you: CC60 (μM) ** : concentration at 50% cell damage with respect to MT-4 cells under 30 µM gets Fulfilled, anything else gets Not fulfilled.

compound="Cc1nc2c(c(C)c(C)n2Cc2cccnc2)c(-c2ccc(Cl)cc2)c1C(OC(C)(C)C)C(=O)O (stereo not drawn) [Example 12]" tested_on="MT-4 cells" assigned_label="Not fulfilled"
compound="CCn1c(C)c(C)c2c(-c3ccc(C#N)cc3)c(C(OC(C)(C)C)C(=O)O)c(C)nc21 (stereo not drawn) [Example 40]" tested_on="MT-4 cells" assigned_label="Not fulfilled"
compound="Cc1nc2c(ccn2C)c(-c2ccc(Cl)cc2)c1[C@H](OC(C)(C)C)C(=O)O [Example 34]" tested_on="MT-4 cells" assigned_label="Not fulfilled"
compound="Cc1nc2c(c(C)c(C)n2Cc2ccc(F)nc2)c(-c2ccc(Cl)cc2)c1[C@H](OC(C)(C)C)C(=O)O [Example 67]" tested_on="MT-4 cells" assigned_label=Fulfilled
compound="CCn1c(C)c(C)c2c(-c3ccc(OC)cc3)c(C(OC(C)(C)C)C(=O)O)c(C)nc21 (stereo not drawn) [Example 41]" tested_on="MT-4 cells" assigned_label="Not fulfilled"
compound="CCn1c(C)c(C)c2c(-c3ccc(C)cc3)c(C(OC(C)(C)C)C(=O)O)c(C)nc21 (stereo not drawn) [Example 38]" tested_on="MT-4 cells" assigned_label="Not fulfilled"
compound="Cc1nc2c(c(C)c(C)n2C(C)C)c(-c2ccc(Cl)cc2)c1C(OC(C)(C)C)C(=O)O (stereo not drawn) [Example 21]" tested_on="MT-4 cells" assigned_label=Fulfilled
compound="COCCn1c(C)c(C)c2c(-c3ccc(Cl)cc3)c([C@H](OC(C)(C)C)C(=O)O)c(C)nc21 [Example 78]" tested_on="MT-4 cells" assigned_label=Fulfilled
compound="Cc1nc2c(c(C)c(C)n2CCC#N)c(-c2ccc(Cl)cc2)c1C(OC(C)(C)C)C(=O)O (stereo not drawn) [Example 23]" tested_on="MT-4 cells" assigned_label=Fulfilled
compound="Cc1nc2c(c(C)c(C)n2C)c(-c2ccc(Cl)cc2)c1[C@@H](OC(C)(C)C)C(=O)O [Example 27]" tested_on="MT-4 cells" assigned_label=Fulfilled
compound="Cc1nc2c(c(C)c(C)n2Cc2ccco2)c(-c2ccc(Cl)cc2)c1[C@H](OC(C)(C)C)C(=O)O [Example 44]" tested_on="MT-4 cells" assigned_label=Fulfilled
compound="C=CCn1c(C)c(C)c2c(-c3ccc(Cl)cc3)c(C(OC(C)(C)C)C(=O)O)c(C)nc21 (stereo not drawn) [Example 3]" tested_on="MT-4 cells" assigned_label=Fulfilled
compound="CCn1c(C)c(C)c2c(-c3ccccc3)c(C(OC(C)(C)C)C(=O)O)c(C)nc21 (stereo not drawn) [Example 37]" tested_on="MT-4 cells" assigned_label=Fulfilled
compound="CCn1c(C)c(C)c2c(-c3ccc(F)cc3)c(C(OC(C)(C)C)C(=O)O)c(C)nc21 (stereo not drawn) [Example 39]" tested_on="MT-4 cells" assigned_label="Not fulfilled"
compound="Cc1nc2c(c(C)c(C)n2Cc2cn[nH]c2)c(-c2ccc(Cl)cc2)c1[C@H](OC(C)(C)C)C(=O)O [Example 46]" tested_on="MT-4 cells" assigned_label=Fulfilled
compound="Cc1nc2c(c(C)c(C)n2CC#N)c(-c2ccc(Cl)cc2)c1C(OC(C)(C)C)C(=O)O (stereo not drawn) [Example 22]" tested_on="MT-4 cells" assigned_label="Not fulfilled"
compound="Cc1nc2c(c(C)c(C)n2Cc2ccc(F)cc2)c(-c2ccc(Cl)cc2)c1C(OC(C)(C)C)C(=O)O (stereo not drawn) [Example 8]" tested_on="MT-4 cells" assigned_label=Fulfilled
compound="Cc1nc2c(c(C)c(C)n2Cc2ccnc(F)c2)c(-c2ccc(Cl)cc2)c1[C@H](OC(C)(C)C)C(=O)O [Example 66]" tested_on="MT-4 cells" assigned_label=Fulfilled
compound="Cc1nc2c(c(C)c(C)n2CCO)c(-c2ccc(Cl)cc2)c1C(OC(C)(C)C)C(=O)O (stereo not drawn) [Example 24]" tested_on="MT-4 cells" assigned_label="Not fulfilled"
compound="Cc1nc2c(c(C)c(C)n2Cc2ccncc2)c(-c2ccc(Cl)cc2)c1C(OC(C)(C)C)C(=O)O (stereo not drawn) [Example 10]" tested_on="MT-4 cells" assigned_label="Not fulfilled"
compound="Cc1nc2c(c(C)c(C)n2CC2CC2)c(-c2ccc(Cl)cc2)c1C(OC(C)(C)C)C(=O)O (stereo not drawn) [Example 4]" tested_on="MT-4 cells" assigned_label=Fulfilled
compound="Cc1nc2c(c(C)c(C)n2CC2CC2)c(-c2ccc(Cl)cc2)c1[C@H](OC(C)(C)C)C(=O)O [Example 28]" tested_on="MT-4 cells" assigned_label=Fulfilled
compound="Cc1nc2c(c(C)c(C)n2C)c(-c2ccc(Cl)cc2)c1[C@H](OC(C)(C)C)C(=O)O [Example 26]" tested_on="MT-4 cells" assigned_label="Not fulfilled"
compound="Cc1nc2c(c(C)c(C)n2C)c(-c2ccc(Cl)cc2)c1C(OC(C)(C)C)C(=O)O (stereo not drawn) [Example 1]" tested_on="MT-4 cells" assigned_label=Fulfilled
compound="Cc1cccc(Cn2c(C)c(C)c3c(-c4ccc(Cl)cc4)c(C(OC(C)(C)C)C(=O)O)c(C)nc32)n1 (stereo not drawn) [Example 14]" tested_on="MT-4 cells" assigned_label="Not fulfilled"
compound="Cc1nc2c(c(C)c(C)n2CC2CCCCC2)c(-c2ccc(Cl)cc2)c1[C@H](OC(C)(C)C)C(=O)O [Example 50]" tested_on="MT-4 cells" assigned_label=Fulfilled
compound="COc1cc(Cn2c(C)c(C)c3c(-c4ccc(Cl)cc4)c(C(OC(C)(C)C)C(=O)O)c(C)nc32)cc(Cl)n1 (stereo not drawn) [Example 35]" tested_on="MT-4 cells" assigned_label=Fulfilled
compound="Cc1nc2c(c(C)c(C)n2CCF)c(-c2ccc(Cl)cc2)c1[C@H](OC(C)(C)C)C(=O)O [Example 54]" tested_on="MT-4 cells" assigned_label=Fulfilled
compound="Cc1nc2c(c(C)c(C)n2Cc2cccnc2)c(-c2ccc(Cl)cc2)c1[C@H](OC(C)(C)C)C(=O)O [Example 53]" tested_on="MT-4 cells" assigned_label="Not fulfilled"
compound="Cc1nc2c(c(C)c(C)n2Cc2ccccc2C#N)c(-c2ccc(Cl)cc2)c1C(OC(C)(C)C)C(=O)O (stereo not drawn) [Example 11]" tested_on="MT-4 cells" assigned_label=Fulfilled
